B1: ATL3 (parent)
chain: QELEEEIKELYENFCKHNGSKNVF

Variants of: B1
assay.method.text: protein stability index of a GFP-peptide fusion (GPS, HEK-293T) (PSI 1-6); higher = more stable;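 further: lentivirally expressed fusions sorted by FACS into six bins by GFP to DsRed ratio, PSI derived from sequencing read proportions per bin multiplied by bin number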
condition: c terminus: a fixed tail appended
Please use true whenever protein stability index is not below 3, and false whenever it is.

hey, is protein stability index for this one >= 3? E9P
true

Decide: is the reported value of protein stability index for Q1C equal to or greater than 3?
false

Determine whether this variant has protein stability index no lower than 3: E6Y
false

Could you verify whether the entry Q1H shows protein stability index of no less than 3?
true

Kindly determine if protein stability index recorded for S20F is above or exactly 3.
false

In plain terms: is recorded protein stability index at least 3 for C15T ?
true

Form field: protein stability index at least 3? Entry: G19D
false

Is it the case that E5I has protein stability index reaching or exceeding 3?
false

Is it the case that N13I has protein stability index reaching or exceeding 3?
false
